Test system: BPH1 benign prostatic hyperplasia cell line
Test: Alamar Blue cell viability, BPH1
Type: cell-based, human
Conditions: Homo sapiens, BPH-1, 72 h exposure
Readout Label: EC50
A bare number is not enough; add the unit after it.

Bench note: what EC50 did "Fc1ccc(-c2ccc3nc(-c4ccccc4)cn3c2)cc1" show?
0.0415 µM
